Each recorded value in this set is attributed to ChEMBL document CHEMBL1201862.

tested on: SNB-19; experiment: NCI tumour cell line growth inhibition, 48 h
Calls of active or inactive are those of the source. No stated cut-off is given here; in the data, active = GI50 up to about 1.1 µM and inactive = higher.
Hi there, use one of these labels in your reply, thanks! active, inactive

See these solved cases before continuing.
MOLECULE	ANSWER_LABEL
CC1=CCP(C(F)(F)F)P(C(F)(F)F)C1 (configuration not stated)	inactive
CCCOc1cc2c(cc1O)CC[C@@H]1[C@@H]2CC[C@]2(C)[C@@H](O)CC[C@@H]12	inactive
CON(C)C(=O)CNC(=O)OCC1c2ccccc2-c2ccccc21	inactive
C[C@]12C(=O)C=CCC1=CC[C@@H]1[C@@H]2[C@H]2CC3(O)C(=O)O[C@@]4(C)[C@H]5C[C@@]6(C)[C@@H]7[C@@]2(O)[C@]1(OC[C@H]6C(=O)O5)O[C@]734 (some centres not stated)	inactive

Would you mind telling me which call this test gave c1cncc(CNc2ncn[nH]2)c1 ? inactive

Would you mind telling me which call this test gave Clc1ccc(NCc2nnc(COc3ccc(OCc4nnc(CNc5ccc(Cl)cc5)o4)c(Cl)c3)o2)cc1 ? inactive

Would you mind telling me which call this test gave CO/N=C1\CC(C)N2C(=O)C(C(C)C)NC(=O)C(NC(=O)c3c4nc5c(C(=O)NC6C(=O)NC(C(C)C)C(=O)N7C(C)CC(O)C7C(=O)N(C)CC(=O)N(C)C(C(C)C)C(=O)OC6C)ccc(C)c5oc-4c(C)c(=O)c3N)C(CO)OC(=O)C(C)N(C)C(=O)CN(C)C(=O)C12 (configuration not stated) ? active

* * *

Listing: GI50 of selected compounds
system: UO-31; assay: NCI tumour cell line growth inhibition, 48 h
The source made the active and inactive calls. Rule as the data show it: active = GI50 up to about 1.1 µM and inactive = higher.

Which GI50 is reported for this compound? CC(=O)OCC1OC(Sc2nc(-c3ccc(C)cc3)c(C#N)c(=O)n2C2OC(COC(C)=O)C(OC(C)=O)C(OC(C)=O)C2OC(C)=O)C(OC(C)=O)C(OC(C)=O)C1OC(C)=O (stereo not drawn) > 100 µM (inactive)

Which GI50 is reported for this compound? COc1ccc(/C(Cl)=C(\CNc2ccccn2)c2ccccc2)cc1OC > 100 µM (inactive)

Which GI50 is reported for this compound? Cc1ccccc1NC(=O)Cc1csc2[n+]1C(=O)/C(=C/c1ccc([N+](=O)[O-])cc1)S2 18.4 µM (inactive)

Which GI50 is reported for this compound? CC1(C)OCC2OC3([C@H](O)CCO)OC(C)(C)OC3C2O1 (stereo partly drawn) > 100 µM (inactive)

Which GI50 is reported for this compound? C=CCN1C2Cc3cc(OC)c(OC)cc3C1Cc1cc(OC)c(OC)cc12 64 µM (inactive)

Which GI50 is reported for this compound? COc1cccc(C2CC23C(=O)NC(=O)NC3=O)c1 (stereo not drawn) > 100 µM (inactive)

Which GI50 is reported for this compound? NCCN(CCN)/[N+]([O-])=N/O > 100 µM (inactive)

Which GI50 is reported for this compound? CO/N=C1\CC(C)N2C(=O)C(C(C)C)NC(=O)C(NC(=O)c3c4nc5c(C(=O)NC6C(=O)NC(C(C)C)C(=O)N7C(C)CC(O)C7C(=O)N(C)CC(=O)N(C)C(C(C)C)C(=O)OC6C)ccc(C)c5oc-4c(C)c(=O)c3N)C(CO)OC(=O)C(C)N(C)C(=O)CN(C)C(=O)C12 (stereo not drawn) 2.23 µM (inactive)
